Parameter A450 ELISA: see the listing below.
Biological target: Aβ1-42 peptide
Sequence (peptide, as listed by the source): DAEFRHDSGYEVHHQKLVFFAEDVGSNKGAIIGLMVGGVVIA
Test: ELISA, nonbiotinylated peptide on plate
Please respond with the number in A450 and leave the unit unwritten.

binder	observed measurement
6G light chain variant 5B (Q94G) (antibody, V domains shown) VH: QVQLVQSGAEVKKPGASVKVSCKASGYTFTTYAIHWVRQAPGQGLEWMGFTSPYSGVSNYNQKFKGRVTMTRDTSTSTVYMELSSLRSEDTAVYYCARFDNYDRGYVRDYWGQGTLVTVS VL: DIVMTQSPDSLAVSLGERATINCRASESVDNDRISFLNWYQQKPGQPPKLLIYAATKQGTGVPDRFSGSGSGTDFTLTISSLQAEDVAVYYCQGSKEFPWSFGGGTKVEIKR	0.14
6G light chain variant 7F (Q94K) (antibody, V domains shown) VH: QVQLVQSGAEVKKPGASVKVSCKASGYTFTTYAIHWVRQAPGQGLEWMGFTSPYSGVSNYNQKFKGRVTMTRDTSTSTVYMELSSLRSEDTAVYYCARFDNYDRGYVRDYWGQGTLVTVS VL: DIVMTQSPDSLAVSLGERATINCRASESVDNDRISFLNWYQQKPGQPPKLLIYAATKQGTGVPDRFSGSGSGTDFTLTISSLQAEDVAVYYCQKSKEFPWSFGGGTKVEIKR	0.19
6G light chain variant 10E (S95L) (antibody, V domains shown) VH: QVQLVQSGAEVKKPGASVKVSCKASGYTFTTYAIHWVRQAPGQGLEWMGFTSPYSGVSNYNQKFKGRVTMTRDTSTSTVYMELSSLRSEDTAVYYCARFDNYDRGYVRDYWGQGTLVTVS VL: DIVMTQSPDSLAVSLGERATINCRASESVDNDRISFLNWYQQKPGQPPKLLIYAATKQGTGVPDRFSGSGSGTDFTLTISSLQAEDVAVYYCQQLKEFPWSFGGGTKVEIKR	0.12
6G light chain variant 7E (Q94R) (antibody, V domains shown) VH: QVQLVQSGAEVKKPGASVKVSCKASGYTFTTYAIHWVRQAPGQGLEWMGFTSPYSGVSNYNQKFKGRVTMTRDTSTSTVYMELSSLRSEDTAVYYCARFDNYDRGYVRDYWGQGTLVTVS VL: DIVMTQSPDSLAVSLGERATINCRASESVDNDRISFLNWYQQKPGQPPKLLIYAATKQGTGVPDRFSGSGSGTDFTLTISSLQAEDVAVYYCQRSKEFPWSFGGGTKVEIKR	0.18
6G light chain variant 6E (E97P) (antibody, V domains shown) VH: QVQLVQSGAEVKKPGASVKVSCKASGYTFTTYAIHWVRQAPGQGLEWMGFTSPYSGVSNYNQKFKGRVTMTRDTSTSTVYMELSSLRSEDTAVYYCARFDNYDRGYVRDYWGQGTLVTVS VL: DIVMTQSPDSLAVSLGERATINCRASESVDNDRISFLNWYQQKPGQPPKLLIYAATKQGTGVPDRFSGSGSGTDFTLTISSLQAEDVAVYYCQQSKPFPWSFGGGTKVEIKR	0.2

Consider the record given below.
// sample 6G heavy chain variant 7D (N101C) (antibody, V domains shown) VH: QVQLVQSGAEVKKPGASVKVSCKASGYTFTTYAIHWVRQAPGQGLEWMGFTSPYSGVSNYNQKFKGRVTMTRDTSTSTVYMELSSLRSEDTAVYYCARFDCYDRGYVRDYWGQGTLVTVS VL: DIVMTQSPDSLAVSLGERATINCRASESVDNDRISFLNWYQQKPGQPPKLLIYAATKQGTGVPDRFSGSGSGTDFTLTISSLQAEDVAVYYCQQSKEFPWSFGGGTKVEIKR , its A450 ELISA was 0.31
